test.details: Solubility of FFC in aqueous Beta-CD/PEG-300 systems
Format: physicochemical
run.conditions: aqueous beta-cyclodextrin/PEG-300 system, aqueous with cosolvent or surfactant or cyclodextrin, thermodynamic from solid, 50 mM beta/20% PEG-300
value.type: solubility (mg/mL)
Express it in mg/mL; write the number only.

Tell us which solubility value is on record for CS(=O)(=O)c1ccc([C@@H](O)[C@@H](CF)NC(=O)C(Cl)Cl)cc1 (relative stereo) [FFC]
10.6

###

test.details: Experimental water solubility of FFC (HPLC solubility study)
Format: physicochemical
run.conditions: thermodynamic from solid, Standard 3
value.type: solubility (µg/mL)
Express it in µg/mL; write the number only.

Tell us which solubility value is on record for CS(=O)(=O)c1ccc([C@@H](O)[C@@H](CF)NC(=O)C(Cl)Cl)cc1 (relative stereo)
1950
